Value source: the kinase profiling compilation of Christmann-Franck et al. (2016)

- target_under_test: DYRK1A (human)
- protocol_summary: KINOMEscan competition binding
- experimental_conditions: compound 10.0 µM
Overview of reported kinase still bound, per cent of control across a group of molecules:
Supply the numeric figure in %, leaving out any unit text.

[
  {
    "chemical_string": "COC(=O)Nc1ccc(-c2nc(N3CCOCC3)c3cnn(C4CCN(C(=O)OC)CC4)c3n2)cc1",
    "target_under_test": "DYRK1A (human)",
    "unit_of_measure": "%",
    "reported": 88
  },
  {
    "chemical_string": "CCC(=O)N1CCN(c2ccc(-n3c(=O)ccc4cnc5ccc(-c6cnc7ccccc7c6)cc5c43)cc2C(F)(F)F)CC1",
    "target_under_test": "DYRK1A (human)",
    "unit_of_measure": "%",
    "reported": 71
  },
  {
    "chemical_string": "COc1ccc(-c2ccc3c(N4CCOCC4)nc(N4C[C@@H](C)O[C@@H](C)C4)nc3n2)cc1CO",
    "target_under_test": "DYRK1A (human)",
    "unit_of_measure": "%",
    "reported": 94
  }
]

Okay, now this molecule:
Request: I'd like to know its kinase still bound, per cent of control. The molecule in question is CC(C)n1nc(-c2cc3cc(O)ccc3[nH]2)c2c(N)ncnc21
Response: 27
